Target: KDM2A (Homo sapiens)
Sequence (Q9Y2K7 whole entry): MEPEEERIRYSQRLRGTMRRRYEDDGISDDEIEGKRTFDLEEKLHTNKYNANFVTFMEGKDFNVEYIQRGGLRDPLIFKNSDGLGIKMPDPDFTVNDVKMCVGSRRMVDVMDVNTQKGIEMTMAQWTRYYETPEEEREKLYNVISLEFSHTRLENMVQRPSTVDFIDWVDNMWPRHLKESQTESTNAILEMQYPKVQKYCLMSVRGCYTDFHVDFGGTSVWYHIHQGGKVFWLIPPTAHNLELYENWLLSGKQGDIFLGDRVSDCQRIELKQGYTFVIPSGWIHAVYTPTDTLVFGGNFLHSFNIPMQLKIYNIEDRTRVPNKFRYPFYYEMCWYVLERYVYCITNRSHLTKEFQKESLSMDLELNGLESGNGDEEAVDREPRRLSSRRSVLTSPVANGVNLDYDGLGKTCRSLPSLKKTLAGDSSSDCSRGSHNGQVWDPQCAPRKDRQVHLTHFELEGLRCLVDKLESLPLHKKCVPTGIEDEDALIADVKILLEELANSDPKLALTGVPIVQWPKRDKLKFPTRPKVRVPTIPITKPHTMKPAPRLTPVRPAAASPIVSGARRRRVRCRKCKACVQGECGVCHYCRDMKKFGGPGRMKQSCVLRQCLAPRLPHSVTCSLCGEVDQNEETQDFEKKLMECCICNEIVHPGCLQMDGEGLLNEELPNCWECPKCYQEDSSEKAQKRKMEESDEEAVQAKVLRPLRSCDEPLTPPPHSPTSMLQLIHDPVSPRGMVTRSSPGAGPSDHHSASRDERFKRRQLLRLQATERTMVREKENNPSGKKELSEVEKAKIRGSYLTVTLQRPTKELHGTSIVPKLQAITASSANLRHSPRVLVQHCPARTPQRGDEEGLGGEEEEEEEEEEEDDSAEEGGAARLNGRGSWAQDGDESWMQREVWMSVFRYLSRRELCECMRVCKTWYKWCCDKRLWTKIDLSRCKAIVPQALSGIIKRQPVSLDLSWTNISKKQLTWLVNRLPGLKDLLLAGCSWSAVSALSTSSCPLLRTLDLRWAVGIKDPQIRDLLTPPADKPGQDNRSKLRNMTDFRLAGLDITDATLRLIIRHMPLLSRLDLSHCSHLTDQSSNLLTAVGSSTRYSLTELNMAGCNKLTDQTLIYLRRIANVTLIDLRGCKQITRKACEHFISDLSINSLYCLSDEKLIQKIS
Test: KDM AlphaScreen selectivity panel, KDM2A
Assay type: biochemical
Conditions: KDM2A IC50/KDM5B IC50
Quantity Kind: SI over KDM5B, 2A

Reported SI over KDM5B, 2A for C=CC(=O)N1CCC(n2cc(-c3[nH]c4c(C#N)cnn4c(=O)c3C(C)C)cn2)CC1 [Compound 10] : what is it?
> 5843

Further, for C=CC(=O)NCCOc1ccc(-c2[nH]c3c(C#N)cnn3c(=O)c2C(C)C)cc1 [Compound 9] ?
> 1550

Same lookup for C=CC(=O)Nc1cccc(CN(C)CCc2cnn(-c3nccc4c(=O)[nH]cnc34)c2)c1 [Compound 4] , please.
558

And what about the compound CN(CCc1cnn(-c2nccc3c(=O)[nH]cnc23)c1)Cc1cccc(NC(=O)CCl)c1 [Compound 5] ?
451

And what about the compound CC(C)c1c(-c2cnn(C3CCN(C(=O)CCl)CC3)c2)[nH]c2c(C#N)cnn2c1=O [Compound 11] ?
> 6671

Param item: CC(C)c1c(-c2cnn(CCNC(=O)CCl)c2)[nH]c2c(C#N)cnn2c1=O [Compound 7]
> 14113

Provenance of the data: paper PMC6391970
